The reported numbers originate from ChEMBL document CHEMBL1201862.

Overview of reported GI50 across a group of compounds:
test system: OVCAR-3; test: NCI tumour cell line growth inhibition, 48 h
The source made the active and inactive calls. Cut-off read from the data, not from the text of the source: active = GI50 up to about 1.1 µM and inactive = higher.

Compound: CCc1n[nH]c(=O)n1N1C(=O)C2CC=CCC2C1=O (stereo unspecified)
Assayed Target: OVCAR-3
GI50: > 100 µM (inactive)
//
Compound: COC(=O)c1ccccc1/C=C1\Cc2c(ccc3c2CCC3)C1=O
Assayed Target: OVCAR-3
GI50: > 100 µM (inactive)
//
Compound: COC1CCC(OC2CC(C3(C)CCC4(CC(O)C(C)C(C(C)/C=C(\C)C(=O)C(C)CC(C)C(=O)O)O4)O3)OC3(OC(C4OC(O)(CO)C(C)CC4C)CC3C)C2C)OC1C (stereo unspecified)
Assayed Target: OVCAR-3
GI50: < 0.01 µM (active)
//
Compound: Cn1nc2ccc([N+](=O)[O-])cc2[n+]1[O-]
Assayed Target: OVCAR-3
GI50: > 100 µM (inactive)
//
Compound: CC(=O)c1nc(C#N)c(N)o1
Assayed Target: OVCAR-3
GI50: > 100 µM (inactive)
//
Compound: O=[N+]([O-])c1ccc2nc(/C(=N/Nc3ccccc3)C(O)c3ccc(C(O)/C(=N\Nc4ccccc4)c4nc5ccc([N+](=O)[O-])cc5nc4O)cc3)cnc2c1 (stereo unspecified)
Assayed Target: OVCAR-3
GI50: > 100 µM (inactive)
//
Compound: COc1ccc(-c2nc(N)c(C#N)c3c2CCS(=O)(=O)c2ccc(C)cc2-3)cc1OC
Assayed Target: OVCAR-3
GI50: 39.6 µM (inactive)
//
Compound: CCOC(=O)c1cnc2[nH]ccn2c1=O
Assayed Target: OVCAR-3
GI50: > 10 µM (inactive)
//
Compound: COC(=O)C1(C)CCC(c2ccc(C)cc2)=C(CC(=O)O)C1 (stereo unspecified)
Assayed Target: OVCAR-3
GI50: > 100 µM (inactive)
//
Compound: O=C(O)COc1cc(-c2ccccc2F)nc2cc3c(cc12)OCO3
Assayed Target: OVCAR-3
GI50: > 100 µM (inactive)
//
Compound: O=C(CCCl)NN=C1NCCCCN1
Assayed Target: OVCAR-3
GI50: > 100 µM (inactive)
//
Compound: CC(=O)Oc1ccc(/C=C/C(=O)OCCCOC(=O)/C=C/c2ccc(OC(C)=O)c(OC(C)=O)c2)cc1OC(C)=O
Assayed Target: OVCAR-3
GI50: > 100 µM (inactive)
//
Compound: O=C(O)c1cccc(S(=O)(=O)NN2C(=O)CSC2c2ccccc2Cl)c1 (stereo unspecified)
Assayed Target: OVCAR-3
GI50: > 100 µM (inactive)
//
Compound: COc1nc2c(c(=O)n1C)N[C@H]1[C@H](OC(C)=O)[C@@H](OC(C)=O)CO[C@H]1N2
Assayed Target: OVCAR-3
GI50: > 100 µM (inactive)
//
Compound: C1=C(c2ccccc2)CN(c2ccccc2)OC1
Assayed Target: OVCAR-3
GI50: > 100 µM (inactive)
//
Compound: CC[C@H]1C=CCC[C@@]2(C[C@@H]3CC[C@@H]4[C@H](C(=O)OCCCCCCCCCCCCCCCC(=O)N(CCCN)C[C@@H](O)CCN)[C@]5(CCC[C@@H](C)O5)NC(=[N+]34)N2)O1
Assayed Target: OVCAR-3
GI50: 0.887 µM (active)
//
Compound: CCOC(=O)c1cc2c3c(c(C(C)=O)c(OC)c2[nH]1)N(C(=O)CC)CC3
Assayed Target: OVCAR-3
GI50: 14.5 µM (inactive)
//
Compound: COC1=CC(=O)c2c(c(O)c3oc4cc(OC)cc(C)c4c(=O)c3c2O)C1=O
Assayed Target: OVCAR-3
GI50: 0.809 µM (active)
//
Compound: CC(C)CCCC(C)[C@H]1CC[C@H]2n3c(nc4ccccc43)CCC[C@]12C (stereo partly specified)
Assayed Target: OVCAR-3
GI50: 17.4 µM (inactive)
//
Compound: Cc1ccc(NC(=O)/C(Cc2cc(=O)oc3cc(O)ccc23)=N\NC(C)(C)C)cc1C
Assayed Target: OVCAR-3
GI50: > 100 µM (inactive)
//
Compound: CCCCCCCCCC(=O)OCC1OC(n2cc(F)c(=O)[nH]c2=O)C(NC(=O)OCc2ccccc2)C(OC(=O)CCCCCCCCC)C1O (stereo unspecified)
Assayed Target: OVCAR-3
GI50: 21.2 µM (inactive)
//
Compound: COC(=O)C(C(=O)c1ccccc1)C(C(=O)C(=O)Nc1ccc(OC)cc1OC)C(=O)C(=O)c1ccc(C)cc1 (stereo unspecified)
Assayed Target: OVCAR-3
GI50: > 100 µM (inactive)
//
Compound: COc1ccccc1/C=C1\CCC(CN2CCOCC2)C1=O (stereo unspecified)
Assayed Target: OVCAR-3
GI50: 5.57 µM (inactive)
//
Compound: COc1nc(C(Cl)(Cl)Cl)c(Cl)c(O)c1Cl
Assayed Target: OVCAR-3
GI50: > 100 µM (inactive)
//
Compound: C/C(CCOC1CCCCO1)=C(\C)[Si](C)(C)C (stereo unspecified)
Assayed Target: OVCAR-3
GI50: > 100 µM (inactive)
//
Compound: Nc1nc(N)c2cc(Sc3ccc4ccccc4c3)ccc2n1
Assayed Target: OVCAR-3
GI50: 5.89 µM (inactive)
//
Compound: O=[N+]([O-])c1ccc(N2C[N+](c3ccccc3)=NC(c3ccccc3)=N2)cc1
Assayed Target: OVCAR-3
GI50: 32.2 µM (inactive)
//
Compound: CC12CCC(C(=O)n3c1nc1ccccc13)C(C)(C)O2 (stereo unspecified)
Assayed Target: OVCAR-3
GI50: > 100 µM (inactive)
//
Compound: c1ccc2c3nc(C4CCCC4)nc-3c(NC3CCCC3)[nH]c2c1
Assayed Target: OVCAR-3
GI50: 12.5 µM (inactive)
//
Compound: O=C1CC2SC(COCc3ccccc3)(CCN2Cc2ccccc2)C1 (stereo unspecified)
Assayed Target: OVCAR-3
GI50: > 100 µM (inactive)
//
Compound: CN1C(=O)c2ccccc2NC(=O)c2cnn(C)c21
Assayed Target: OVCAR-3
GI50: > 100 µM (inactive)
//
Compound: CC1=C(c2nc3ccccc3s2)C(=O)OC1(C)C
Assayed Target: OVCAR-3
GI50: > 100 µM (inactive)
//
Compound: Cc1ccc2oc3c(c(Br)c(Br)n3C)c(=O)c2c1
Assayed Target: OVCAR-3
GI50: 19.6 µM (inactive)
//
Compound: O=C(O)CCSc1nnc(COc2ccc(Cl)cc2)n1-c1ccccc1
Assayed Target: OVCAR-3
GI50: > 100 µM (inactive)
//
Compound: O=C(NNC(=S)Nc1ccccc1)c1cc(-c2ccccc2)nc2ccccc12
Assayed Target: OVCAR-3
GI50: 11.1 µM (inactive)
//
Compound: COc1cc(/C=C/C(=O)O)ccc1OS(=O)(=O)O
Assayed Target: OVCAR-3
GI50: > 100 µM (inactive)
//
Compound: C=CCCCC12CCCc3cccc(c31)NC2=O (stereo unspecified)
Assayed Target: OVCAR-3
GI50: 18 µM (inactive)
//
Compound: Cc1c(C(=O)/C=C/c2ccc(Cl)cc2)[n+]([O-])c2ccccc2[n+]1[O-]
Assayed Target: OVCAR-3
GI50: 12.5 µM (inactive)
//
Compound: COc1ccc(C2=Nn3c(nc4sc5c(c4c3=O)CCCC5)SC2)cc1
Assayed Target: OVCAR-3
GI50: > 100 µM (inactive)
//
Compound: O=c1[nH]cc(COCCCO)c(=O)[nH]1
Assayed Target: OVCAR-3
GI50: > 100 µM (inactive)
//
Compound: CCOC(=O)/N=c1\ss/c(=N\C(=S)N(C)C)n1-c1ccccc1
Assayed Target: OVCAR-3
GI50: 0.394 µM (active)

* * *

tested on: SF-295; experiment: NCI tumour cell line growth inhibition, 48 h
The source made the active and inactive calls. Rule as the data show it: active = GI50 up to about 1.1 µM and inactive = higher.
Endpoint Name: GI50

Molecule: O=C(O)c1cccc(S(=O)(=O)NN2C(=O)CSC2c2ccccc2Cl)c1 (stereo not given)
Assayed Target: SF-295
Recorded Value: > 100 µM (inactive)

Molecule: CCOC(=O)/C(C)=C\[C@@]1(C)O[C@@H](C)[C@@](C)(OC(C)=O)[C@@H]1OC(C)=O
Assayed Target: SF-295
Recorded Value: 36.8 µM (inactive)

Molecule: CN1CCN(c2c(Cl)cc(Cl)c3[nH]c4ccccc4c(=O)c23)CC1
Assayed Target: SF-295
Recorded Value: 5.85 µM (inactive)

Molecule: CC(C)C(=O)CC(Sc1ccc(N)cc1)c1ccccc1 (stereo not given)
Assayed Target: SF-295
Recorded Value: 25.6 µM (inactive)

Molecule: O=P(c1ccccc1)(c1ccccc1)C1CC=C2CCCCCC2C1 (stereo not given)
Assayed Target: SF-295
Recorded Value: 41.3 µM (inactive)

Molecule: O=C(O)CCCCCOc1cccnc1/C=N/NC1=NCCN1
Assayed Target: SF-295
Recorded Value: > 100 µM (inactive)

Molecule: O=C1C(CN2CCCCC2)CCC1CN1CCCCC1 (stereo not given)
Assayed Target: SF-295
Recorded Value: > 46.5 µM (inactive)

Molecule: CC1CC[C@]2(C(=O)O)CCC3(C)C(=CCC4[C@@]5(C)CC[C@H](OS(=O)(=O)c6ccccc6)C(C)(C)C5CC[C@]43C)[C@@H]2[C@H]1C (stereo not given in full)
Assayed Target: SF-295
Recorded Value: > 100 µM (inactive)

Molecule: CCOC(=O)/C=C(\C(=O)OCC)n1ccc(=O)n(Cc2cn(COCCOC(C)=O)nn2)c1=O
Assayed Target: SF-295
Recorded Value: > 100 µM (inactive)

Molecule: Cc1ccc(O)c(-c2cc(-c3cccc(Cl)c3)c(C#N)c(N)n2)c1
Assayed Target: SF-295
Recorded Value: 14.8 µM (inactive)
